Origin of the recorded values: patent US20250312499A1

system_name: human kisspeptin receptor (Homo sapiens (Human), UniProt Q969F8)
Sequence (Q969F8 whole entry): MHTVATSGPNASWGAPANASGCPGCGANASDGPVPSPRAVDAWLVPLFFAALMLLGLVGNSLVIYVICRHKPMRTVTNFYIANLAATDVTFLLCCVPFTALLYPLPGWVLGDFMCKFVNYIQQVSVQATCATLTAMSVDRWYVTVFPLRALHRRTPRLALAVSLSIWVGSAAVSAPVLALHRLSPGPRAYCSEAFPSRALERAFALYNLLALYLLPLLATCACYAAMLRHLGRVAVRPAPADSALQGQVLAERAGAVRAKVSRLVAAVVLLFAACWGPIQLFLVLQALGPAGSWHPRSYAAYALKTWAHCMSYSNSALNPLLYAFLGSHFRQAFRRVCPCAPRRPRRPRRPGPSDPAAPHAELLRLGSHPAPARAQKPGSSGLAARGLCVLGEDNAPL
assay_overview: Human KISS1R binding assay (membrane competition binding)
condition_set: 90 min at room temperature; competition with 0.2 nM [125I]-metastin (45-54); Flp-In T-Rex 293 kisspeptin membranes; metal complexes nonradioactive Ga, In, Lu; read-out: hKiSSR Binding Ki (90 min)
pKi: −log10 of the molar value. Square brackets hold non-standard residues; d marks the D form. Peptide text beside a SMILES is read from it. * marks the point of attachment. DOTA = O=C(O)CN1CCN(CC(=O)O)CCN(CC(=O)*)CCN(CC(=O)O)CC1; Gly(N-(3-F-4-Me-benzyl)) = Cc1ccc(CNCC(=O)*)cc1F; Api(1-amidino) = N=C(N)N1CCC(N)(C(=O)O)CC1; Phe(4-CN) = N#Cc1ccc(C[C@H](N)C(=O)O)cc1; Palmitoyl = CCCCCCCCCCCCCCCC(=O)*; 4Amb = NCc1ccc(C(=O)O)cc1; Api = NC1(C(=O)O)CCNCC1; azaGly = NNC(=O)O
This section presents compounds with their documented pKi values.

compound: Cc1ccc(CNCC(=O)N2CCC(NC(=O)[C@H](CC(C)C)NC(=O)NNC(=O)[C@H](Cc3ccccc3)NC(=O)[C@@H](NC(=O)[C@H](CC(N)=O)NC(=O)[C@H](CCC(=O)O)NC(=O)c3ccc(CNC(=O)CN4CCN(CC(=O)O)CCN(CC(=O)O)CCN(CC(=O)O)CC4)cc3)[C@@H](C)O)(C(=O)N[C@@H](Cc3ccc(C#N)cc3)C(N)=O)CC2)cc1F [Compound 241] ({DOTA-4Amb}-ENTF[azaGly]L[Api](Gly(N-(3-F-4-Me-benzyl)))[Phe(4-CN)]-NH2)
system_name: human kisspeptin receptor (Homo sapiens (Human), UniProt Q969F8)
pKi: > 8.00

Note: attention shifts to another entry.
Provide value of pKi for this record tested with human kisspeptin receptor (Homo sapiens (Human), UniProt Q969F8): CCCCCCCCCCCCCCCC(=O)N[C@H](Cc1ccc(O)cc1)C(=O)N[C@@H](CCCCNC(=O)CN1CCN(CC(=O)O)CCN(CC(=O)O)CCN(CC(=O)O)CC1)C(=O)N[C@@H](CC(N)=O)C(=O)N[C@H](C(=O)N[C@@H](Cc1ccccc1)C(=O)NNC(=O)N[C@@H](CC(C)C)C(=O)NC1(C(=O)N[C@@H](Cc2c[nH]c3ccccc23)C(N)=O)CCN(C(=N)N)CC1)[C@@H](C)O [Compound 328] (Palmitoyl-[dY]K(DOTA)NTF[azaGly]L[Api(1-amidino)]W-NH2) > 8.00

###

system_name: human kisspeptin receptor (Homo sapiens (Human), UniProt Q969F8)
assay_overview: Human KISS1R binding assay (membrane competition binding)
condition_set: 90 min at room temperature; competition with 0.2 nM [125I]-metastin (45-54); Flp-In T-Rex 293 kisspeptin membranes; metal complexes nonradioactive Ga, In, Lu; read-out: hKiSSR Binding Ki (90 min)
Square brackets hold non-standard residues; d marks the D form. Peptide text beside a SMILES is read from it. * marks the point of attachment. DOTA = O=C(O)CN1CCN(CC(=O)O)CCN(CC(=O)*)CCN(CC(=O)O)CC1; Gly(N-(3-F-4-Me-benzyl)) = Cc1ccc(CNCC(=O)*)cc1F; Bip = N[C@@H](Cc1ccc(-c2ccccc2)cc1)C(=O)O; Api = NC1(C(=O)O)CCNCC1; Ahx = NCCCCCC(=O)O; azaGly = NNC(=O)O
measured_attribute: Ki

Provide value of Ki for this record tested with human kisspeptin receptor (Homo sapiens (Human), UniProt Q969F8): Cc1ccc(CNCC(=O)N2CCC(NC(=O)[C@H](CC(C)C)NC(=O)NNC(=O)[C@H](Cc3ccccc3)NC(=O)[C@@H](NC(=O)[C@H](CC(N)=O)NC(=O)[C@H](Cc3ccc(-c4ccccc4)cc3)NC(=O)[C@@H](Cc3ccc(O)cc3)NC(=O)CCCCCNC(=O)CN3CCN(CC(=O)O)CCN(CC(=O)O)CCN(CC(=O)O)CC3)[C@@H](C)O)(C(=O)N[C@@H](Cc3c[nH]c4ccccc34)C(N)=O)CC2)cc1F [Compound 363] ({DOTA-Ahx}-[dY][Bip]NTF[azaGly]L[Api](Gly(N-(3-F-4-Me-benzyl)))W-NH2) < 10 nM

###

system_name: human kisspeptin receptor (Homo sapiens (Human), UniProt Q969F8)
assay_overview: Human KISS1R binding assay (membrane competition binding)
condition_set: 90 min at room temperature; competition with 0.2 nM [125I]-metastin (45-54); Flp-In T-Rex 293 kisspeptin membranes; metal complexes nonradioactive Ga, In, Lu; read-out: hKiSSR Binding Ki (90 min)
Square brackets hold non-standard residues; d marks the D form. Peptide text beside a SMILES is read from it. * marks the point of attachment. DOTA = O=C(O)CN1CCN(CC(=O)O)CCN(CC(=O)*)CCN(CC(=O)O)CC1; Gly(N-(3-F-4-Me-benzyl)) = Cc1ccc(CNCC(=O)*)cc1F; d4Pal = N[C@H](Cc1ccncc1)C(=O)O; Api = NC1(C(=O)O)CCNCC1; azaGly = NNC(=O)O
measured_attribute: Ki

Could you tell me which Ki is on file for Cc1ccc(CNCC(=O)N2CCC(NC(=O)[C@H](CC(C)C)NC(=O)NNC(=O)[C@H](Cc3ccccc3)NC(=O)[C@@H](NC(=O)[C@H](CC(N)=O)NC(=O)[C@@H](Cc3ccncc3)NC(=O)[C@@H](Cc3ccc(O)cc3)NC(=O)CN3CCN(CC(=O)O)CCN(CC(=O)O)CCN(CC(=O)O)CC3)[C@@H](C)O)(C(=O)N[C@@H](Cc3c[nH]c4ccccc34)C(N)=O)CC2)cc1F [Compound 23] ({DOTA}-[dY][d4Pal]NTF[azaGly]L[Api](Gly(N-(3-F-4-Me-benzyl)))W-NH2) ? < 10 nM

###

system_name: human kisspeptin receptor (Homo sapiens (Human))
assay_overview: Human KISS1R binding assay (membrane competition binding)
condition_set: 90 min at room temperature; competition with 0.2 nM [125I]-metastin (45-54); Flp-In T-Rex 293 kisspeptin membranes; metal complexes nonradioactive Ga, In, Lu; read-out: hKiSSR Binding Ki (90 min)
pKi: −log10 of the molar value. Square brackets hold non-standard residues; d marks the D form. Peptide text beside a SMILES is read from it. * marks the point of attachment. DOTA = O=C(O)CN1CCN(CC(=O)O)CCN(CC(=O)*)CCN(CC(=O)O)CC1; Gly(N-(3-F-4-Me-benzyl)) = Cc1ccc(CNCC(=O)*)cc1F; dCya = N[C@H](CS(=O)(=O)O)C(=O)O; Api = NC1(C(=O)O)CCNCC1; Ahx = NCCCCCC(=O)O; azaGly = NNC(=O)O
measured_attribute: pKi

Provide value of pKi for this record tested with human kisspeptin receptor (Homo sapiens (Human)): Cc1ccc(CNCC(=O)N2CCC(NC(=O)[C@H](CC(C)C)NC(=O)NNC(=O)[C@H](Cc3ccccc3)NC(=O)[C@@H](NC(=O)[C@H](CC(N)=O)NC(=O)[C@@H](Cc3c[nH]c4ccccc34)NC(=O)[C@@H](Cc3ccc(O)cc3)NC(=O)CCCCCNC(=O)[C@@H](CS(=O)(=O)O)NC(=O)CN3CCN(CC(=O)O)CCN(CC(=O)O)CCN(CC(=O)O)CC3)[C@@H](C)O)(C(=O)N[C@@H](Cc3c[nH]c4ccccc34)C(N)=O)CC2)cc1F [Compound 115] ({DOTA}-[dCya][Ahx][dY][dW]NTF[azaGly]L[Api](Gly(N-(3-F-4-Me-benzyl)))W-NH2) > 8.00

###

system_name: human kisspeptin receptor (Homo sapiens (Human), UniProt Q969F8)
assay_overview: Human KISS1R binding assay (membrane competition binding)
condition_set: 90 min at room temperature; competition with 0.2 nM [125I]-metastin (45-54); Flp-In T-Rex 293 kisspeptin membranes; metal complexes nonradioactive Ga, In, Lu; read-out: hKiSSR Binding Ki (90 min)
Numbered stars: 1 amine (or outer) side, 2 acyl side, 3 side chain; on linkers, the order of the positions; unused ones are H or OH. Square brackets hold non-standard residues; d marks the D form. Peptide text beside a SMILES is read from it. * marks the point of attachment. DOTA = O=C(O)CN1CCN(CC(=O)O)CCN(CC(=O)*)CCN(CC(=O)O)CC1; Gly(N-(3-F-4-Me-benzyl)) = Cc1ccc(CNCC(=O)*)cc1F; X3 = CNC(=N)N1CCC(N[*:1])(C(=O)[*:2])CC1; Api = NC1(C(=O)O)CCNCC1; Ahx = NCCCCCC(=O)O; azaGly = NNC(=O)O
This section presents compounds with their documented Ki values.

compound: CNC(=N)N1CCC(NC(=O)[C@H](CC(C)C)NC(=O)NNC(=O)[C@H](Cc2ccccc2)NC(=O)[C@@H](NC(=O)[C@H](CC(N)=O)NC(=O)[C@@H](Cc2c[nH]c3ccccc23)NC(=O)[C@@H](Cc2ccc(O)cc2)NC(=O)CCCCCNC(=O)CN2CCN(CC(=O)O)CCN(CC(=O)O)CCN(CC(=O)O)CC2)[C@@H](C)O)(C(=O)N[C@@H](Cc2c[nH]c3ccccc23)C(N)=O)CC1 [Compound 91] ({DOTA-Ahx}-[dY][dW]NTF[azaGly]L[X3]W-NH2)
measured_attribute: Ki
result: < 10 nM

Note: attention shifts to another entry.
Could you tell me which Ki is on file for Cc1ccc(CNCC(=O)N2CCC(NC(=O)[C@H](CC(C)C)NC(=O)NNC(=O)[C@H](Cc3ccccc3)NC(=O)[C@@H](NC(=O)[C@H](CC(N)=O)NC(=O)[C@@H](Cc3c[nH]c4ccccc34)NC(=O)[C@@H](Cc3c[nH]cn3)NC(=O)[C@@H](Cc3ccc(O)cc3)NC(=O)CCCCCNC(=O)CN3CCN(CC(=O)O)CCN(CC(=O)O)CCN(CC(=O)O)CC3)[C@@H](C)O)(C(=O)N[C@@H](Cc3c[nH]c4ccccc34)C(N)=O)CC2)cc1F [Compound 32] ({DOTA-Ahx}-[dY][dH][dW]NTF[azaGly]L[Api](Gly(N-(3-F-4-Me-benzyl)))W-NH2) ? < 10 nM
